- target system: rat PTP1 (Rattus norvegicus)
- Construct: a C-terminal truncation of rat PTP1 (amino acid residues 1-322); GST (N, cleaved yes)
- test details: PTP1 assay, pNPP hydrolysis (rate of change in A405)
- experimental setup: calculated from IC50-values obtained from a dose-response curve using the inhibition assay
pKi: −log10 of the molar value.
measured parameter: pKi

Sample answers from the record:
record smiles | target system | observed measurement
CCCCCNC(=O)[C@@H](Cc1ccc(OCC(=O)O)c(C(=O)O)c1)NC(=O)Cc1ccccc1OC | rat PTP1 (Rattus norvegicus) | 4.52
CCCCCNC(=O)[C@H](Cc1ccc(OCC(=O)O)c(C(=O)O)c1)NC(=O)[C@H](Cc1ccccc1)NC(=O)Oc1ccccc1 | rat PTP1 (Rattus norvegicus) | 6.06

[a] O=C(O)COc1ccc(C[C@H](NC(=O)c2ccccc2)C(=O)NCCCCc2ccccc2)cc1-c1nn[nH]n1
[b] O=C(O)COc1ccc(C[C@H](NC(=O)c2ccoc2)C(=O)NCCCCc2ccccc2)cc1-c1nn[nH]n1
[c] CC(C)(C)OC(=O)N[C@@H](Cc1ccccc1)C(=O)N[C@@H](Cc1ccc(OCC(=O)O)c(C(=O)O)c1)C(=O)NOCCCc1ccccc1
Please list these compounds in decreasing order of pKi. Lab note: record answer as labels in requested order.
c, a, b

====

- target system: human PTP1B (Homo sapiens, UniProt P18031)
- Construct: human PTP1B (amino acid residues 1-321); made in house; host or cells: E. coli BL21(DE3)
- Sequence (P18031 1-321): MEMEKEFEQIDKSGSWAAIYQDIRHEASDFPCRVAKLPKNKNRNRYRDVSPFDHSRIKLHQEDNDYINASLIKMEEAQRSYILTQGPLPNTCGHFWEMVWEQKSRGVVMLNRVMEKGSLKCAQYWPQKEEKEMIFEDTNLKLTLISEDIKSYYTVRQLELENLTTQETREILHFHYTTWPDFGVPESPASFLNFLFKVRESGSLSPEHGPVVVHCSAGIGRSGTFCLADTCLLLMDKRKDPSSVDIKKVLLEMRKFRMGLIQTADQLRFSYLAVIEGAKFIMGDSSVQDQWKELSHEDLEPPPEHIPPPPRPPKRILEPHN
- test details: PTP1B assay, pNPP hydrolysis, assayed exactly as for PTP1
- Type: biochemical
- experimental setup: Conc 100 uM, Table 2, read-out: PTP1B Inhib PTP1B. % Inhib
measured parameter: inhibition at 100 µM (%)

Sample answers from the record:
compound | target system | inhibition at 100 µM [%]
CCCCCNC(=O)[C@H](Cc1ccc(N(CC(=O)O)CC(=O)O)cc1)NC(=O)[C@H](Cc1ccccc1)NC(=O)OC(C)(C)C | human PTP1B (Homo sapiens, UniProt P18031) | 29
CCCCCNC(=O)C(Cc1ccc(OC(COO)COO)cc1)NC(=O)C(CSCc1ccccc1)NC(=O)OC(C)(C)C (stereo not shown) | human PTP1B (Homo sapiens, UniProt P18031) | 75
CCCCCNC(=O)[C@H](Cc1ccc(OCC(=O)O)c(C(=O)O)c1)NC(=O)C(Cc1ccccc1)NC(=O)CSc1cnn[nH]1 (stereo partly shown) | human PTP1B (Homo sapiens, UniProt P18031) | 98

[1] CCCCCNC(=O)C(Cc1ccc(OCC(=O)O)c(OCC(=O)O)c1)NC(=O)C(Cc1ccccc1)NC(=O)OC(C)(C)C (stereo not shown)
[2] CCCCCNC(=O)C(Cc1ccc(OC(COO)COO)cc1)NC(=O)C(Cc1ccc(O)cc1)NC(=O)OC(C)(C)C (stereo not shown)
[3] CCCCCNC(=O)C(Cc1ccc(OC(COO)COO)cc1)NC(=O)C(CCc1ccccc1)NC(=O)OC(C)(C)C (stereo not shown)
Sort (3 compounds) by inhibition at 100 µM: min first. Lab note: record answer as labels in requested order.
1, 3, 2

[A] CCCCCNC(=O)C(Cc1ccc(OC(COO)COO)cc1)NC(=O)C(CCCCNC(=O)OCc1ccccc1)NC(=O)OC(C)(C)C (stereo not shown)
[B] CCCCCNC(=O)C(Cc1ccc(OC(COO)C(=O)O)cc1)C(=O)NCCC(=O)O (stereo not shown)
Which entry shows the lesser value of inhibition at 100 µM here, A or B ? # reply format: chosen label
B

[1] CCCCCNC(=O)[C@H](Cc1ccc(OC(F)C(=O)O)c(C(=O)O)c1)NC(=O)[C@H](Cc1ccccc1)NC(=O)OC(C)(C)C (stereo partly shown)
[2] CCCCCNC(=O)C(Cc1ccc(OCCOO)c(COO)c1)NC(=O)CCc1ccccc1 (stereo not shown)
Could you kindly indicate whether 1 or 2 has the higher inhibition at 100 µM value? # reply format: chosen label
1
(1: 95%, 2: 60%)

====

- target system: rat PTP1 (Rattus norvegicus, UniProt P20417)
- Construct: a C-terminal truncation of rat PTP1 (amino acid residues 1-322); GST (N, cleaved yes); made in house; host or cells: E. coli strain TG-1 (pGEX-2T)
- Sequence (P20417 1-322): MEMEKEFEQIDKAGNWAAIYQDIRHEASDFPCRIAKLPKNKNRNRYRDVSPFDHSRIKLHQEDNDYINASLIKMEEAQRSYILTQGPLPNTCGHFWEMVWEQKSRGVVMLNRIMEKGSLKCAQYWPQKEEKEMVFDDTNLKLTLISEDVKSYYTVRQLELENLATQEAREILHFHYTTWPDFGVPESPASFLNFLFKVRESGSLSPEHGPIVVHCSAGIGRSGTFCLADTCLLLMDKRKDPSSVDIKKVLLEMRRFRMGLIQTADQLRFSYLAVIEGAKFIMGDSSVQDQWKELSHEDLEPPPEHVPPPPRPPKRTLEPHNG
- test details: PTP1 assay, pNPP hydrolysis (rate of change in A405)
- Type: biochemical
- experimental setup: Conc 10 uM; pNPP hydrolysis; Table 1; read-out: PTP1 Inhib % Inhib
measured parameter: inhibition at 10 µM (%)

[P] CCCCCCNC(=O)[C@H](Cc1ccc(OC(C(=O)O)C(=O)O)cc1)NC(=O)CCC(=O)O
[Q] CCCCCNC(=O)[C@H](Cc1ccc(OC(C(=O)O)C(=O)O)cc1)NC(=O)C(CC(=O)O)NC(=O)OC(C)(C)C (stereo partly drawn)
[R] CCCCCNC(=O)[C@H](Cc1ccc(OC(C(=O)O)C(=O)O)cc1)NC(=O)C(CC(=O)O)CC(=O)O
[S] CCCCCNC(=O)[C@H](Cc1ccc(OC(C(=O)O)C(=O)O)cc1)NC(=O)[C@H](CCC(=O)O)NC(=O)CCC(=O)O
Order each entry by recorded inhibition at 10 µM, climbing from the minimum. Lab note: record answer as labels in requested order.
P, R, Q, S
(P: 17%, R: 33%, Q: 53%, S: 76%)

[P] CCCCCNC(=O)C(Cc1ccc(OC(COO)COO)cc1)NC(=O)NC(CCC(=O)O)C(=O)O (stereo not drawn)
[Q] CCCCCNC(=O)C(Cc1ccc(OC(COO)COO)cc1)NC(=O)NCC(=O)O (stereo not drawn)
[R] CCCCCNC(=O)[C@H](Cc1ccc(OC(C(=O)O)C(=O)O)cc1)NC(=O)[C@H](CCC(=O)O)NC(=O)OC(C)(C)C
Please list these compounds in decreasing order of inhibition at 10 µM. Lab note: record answer as labels in requested order.
P, R, Q

[I] CCCCCNC(=O)[C@H](Cc1ccc(OC(C(=O)O)C(=O)O)cc1)NC(=O)CCc1ccc(CC(C(=O)O)C(=O)O)cc1
[II] CCCCCNC(=O)[C@H](Cc1ccc(OC(C(=O)O)C(=O)O)cc1)NC(=O)CCCC(=O)O
[III] CCCCCCCCCCNC(=O)C(Cc1ccc(OC(COO)COO)cc1)NC(=O)CCC(=O)O (stereo not drawn)
[IV] CCCCCNC(=O)C(Cc1ccc(OC(COO)COO)cc1)NC(=O)Nc1cc(C(=O)O)cc(C(=O)O)c1 (stereo not drawn)
[V] CCCCCNC(=O)[C@H](Cc1ccc(OC(C(=O)O)C(=O)O)cc1)NC(=O)CCC(N)=O
Please list these compounds in decreasing order of inhibition at 10 µM. Lab note: record answer as labels in requested order.
IV, I, II, V, III

[a] CCCCCNC(=O)C(Cc1ccc(OC(COO)COO)cc1)NC(=O)N(CC(=O)O)Cc1ccc(OCc2ccccc2)cc1 (stereo not drawn)
[b] O=C(O)CCC(=O)NC(Cc1ccc(OC(COO)COO)cc1)C(=O)NCc1ccc(C(=O)O)cc1 (stereo not drawn)
Which entry shows the lesser value of inhibition at 10 µM here, a or b ? # reply format: chosen label
b

====

- target system: rat PTP1 (Rattus norvegicus, UniProt P20417)
- Construct: a C-terminal truncation of rat PTP1 (amino acid residues 1-322); GST (N, cleaved yes); made in house; host or cells: E. coli strain TG-1 (pGEX-2T)
- test details: PTP1 assay, pNPP hydrolysis (rate of change in A405)
- Assay type: biochemical
- experimental setup: inhibition of pNPP-hydrolysis; compound concentration 1 μM; read-out: % Inhibition
measured parameter: inhibition at 1 µM (%)

molecule | observed measurement
O=C(O)COc1ccc(C[C@H](NS(=O)(=O)c2ccccc2)C(=O)NCCCOc2ccccc2)cc1C(=O)O [Example 156-16] | 20

[I] CC(C)(C)OC(=O)N[C@@H](Cc1ccccc1)C(=O)N[C@@H](Cc1ccc(OCC(=O)O)c(C(=O)O)c1)C(=O)NCc1cccnc1 [Example 157-14]
[II] O=C(O)COc1ccc(C[C@H](NC(=O)c2ccccc2)C(=O)NCCCCc2ccc(Cl)cc2)cc1C(=O)O [Example 154-19]
Which entry shows the lesser value of inhibition at 1 µM here, I or II ? # reply format: chosen label
I
(I: 20%, II: 40%)
